- TEST_DESCRIPTION: yeast display, Sf9 membrane polyspecificity reagent, FACS + sequencing; frameworks hold sequencing errors
OBSERVED_PROPERTY: polyreactivity (PSR sort gate)

QVQLVESGGGLVQAGGSLRLSCAASGSIIYAYAMGWYRQAPGKERELVAGIRDGGSTYYADSVKCRFTISRDNAKNTVYLQMNSLKPEDTAVYYCAAGPRIRDDYWGQGTQVTVSS : low polyreactivity
QVHLQESGGGLVQAGGSLRLSCAASGNIVDADIMGWYRQAPGKERELVASITDGGSTNYADSVKGRFTISRDNAKNTVYLQMNSLKPEDTAVYYCAAIGYPDIPTYFDYDSEYFYWGQGTQVTVSS : low polyreactivity
QVLLVESGGGLVQAGGSLRLSCAASGIILGDNARGWYRQAPGKDRVLDATISTSGVSTYYADSVKGRFTISRDNAKKTVNFQMNSLKPQDTAVYYCAASNEVPWRFPDDSWGQGTQVTVSS : low polyreactivity

* * *

- TEST_DESCRIPTION: yeast display, Sf9 membrane polyspecificity reagent, FACS + sequencing; frameworks hold sequencing errors
OBSERVED_PROPERTY: polyreactivity (PSR sort gate)

Guide cases for polyreactivity (PSR sort gate), answers given:
QVQLVESGGGLVQAGGSLRLSCAASGLIFPRYAMGWYRQAPGKVSELVAAITWSGGSTFYADSVKGRFTISRDTAKNTVYLQMNSLKPEDTAVYYCAAQDASERTYGYDGYYYWGQGTQVTVSS : low polyreactivity
QVQLVESGGGLVQSGGSLRLSCAASGSIFGYYAMGWYRPAPGKERELVAGITNSGDTNYADSVKGRFTISRDNAKNTVYLQMNSLKPEDTAVYYCAAESWAALYGMDYWGQGTQVTVSS : low polyreactivity
QVQLVESGGGLVQAGGSLRLSCAASGSTFPQNAMGWTRQAPGKERELVAVISRSGGNPYYADSVKGRFTISRDIAKNSVYLQMNSLKPEDTAVYYCATRVKTTYDYWGQGTQVTVSS : low polyreactivity
QVQLVESGGGLVQAGGSLRLTCAASGSTFYPYAMGWYRQAPGKERELVAAISSGGSTYYADSVKGRFTISRDNAKNSVYLQMNSLKPEDTAVYYCAADFYYAYYWGQGTQVTVSS : low polyreactivity
QVQLVESGGGLVQAGGSLRLSCAASGLTFWFYAMGWYRQAPGKERELVASISRGGRTYYADSVKGRFTISRDNAKNTVYLQMNSLKPEDTAVYYCIADELYYEYKDYDYWGQGTQVTVSS : low polyreactivity
QVQLLESGGGLVQAGGSLRLSCAASGSIFLTYAMGWYRQAPGKERELVAAISSSGGSTYYADSVKGRFTISRDNSKNTVYLQMNSLKPEVTAVYYCNAAYHFRRTLGRDHWGQGTEVTVSS : low polyreactivity

q: Report polyreactivity (PSR sort gate), nothing else, for this sequence: QVQLVESGGGLVQAGGSLSLSCAASGSTFQLYAKGWYRQAPGKERELVAAISGIGDSTYYADSVKWRFTISRDNAKNTVYLLMNSLKPEDTAVYYCAREFSDGLSGKFDYWGHGTQVTVSS
a: low polyreactivity

q: Report polyreactivity (PSR sort gate), nothing else, for this sequence: QVQLVESGGGLVQAGGSLRISCAASGFIISFYAMGWYRQAPRKERELVAAIKLSGGSTYYADSVKGRFTISRDNAKNTVYLQMNSLKPEETAVYYCNDVQYFSIPKPVWLFVLRYYYWGHGTQVTVSS
a: low polyreactivity

* * *

- TEST_DESCRIPTION: yeast display, Sf9 membrane polyspecificity reagent, FACS + sequencing; frameworks hold sequencing errors
OBSERVED_PROPERTY: polyreactivity (PSR sort gate)

Guide cases for polyreactivity (PSR sort gate), answers given:
QVQLVESGGGLVQAGGSLRLSCAASGSTFPRYAMGWYRQAPGKEREFVAVIWSGGSTYYADSVKGRFTISRDNAKNTVYLQMNSLKPEDTAVYYCAAEYHTLSKYSGYATHDYWGQGTQVTVSS : low polyreactivity
QVQLVESGGGLVQAGGSLRLSCPASGSTFWYYAMGWYRQAPGKERELVAAITRGGSTNYADSVKGRFTISRDNAKNTVYLQMNSLKPEDTAVYYCAKDGPQYRYYYWGQGTQVTVSS : high polyreactivity
QDQLVESGGGLVQAGGSLRLSCAASGRTFYYYTMGWDRQAPGKERELVAAISRRGGRTYYADSVKRRFTISRDNAKNTVYLQMTSLKPEDTAVYYCAADRDHVVDFDYWGQGTQVTVSS : high polyreactivity
QVQLVESGGGLVQAGGSLRLSCAASGSTFPPNAMGWYRQAPGKESELVAAISFSSGRTYYADSVKGRFTISRDNAKNTVYLQMNSLKPEDTAVYYCAADHGYWGQGTQVTVSS : low polyreactivity
QVQLVESGGGLVQAGGSLRLSCAAYGSTFTDYDMGWYRQAPGKERELVAAITSGGSTNYADSVKGRFTISRDNAKNTVYLQMNSLKPEDTAVYYCAAADADRKYDYWGQGTQVTVSS : low polyreactivity

q: Report polyreactivity (PSR sort gate), nothing else, for this sequence: QVQLVESGGGLVQAGGSLRLSCAASGRIFYYNVMGWYRQAHGKERELVASISYSSTRTYYADSVKGRFTISRDNAKNTVYLQMNRLKQEDTAVYYCAVDTYAYRGVSYWSERTYYYWGQGTQVNVSS
a: low polyreactivity

q: Report polyreactivity (PSR sort gate), nothing else, for this sequence: QVQLVESGGGLVQAGGSLRLSCAASGSTLGHNAMGWYRQAPGKERELVAGISWRGGSTYYADSVKGRFTISRDNAKNTVYLQMNSLKPEDTAVYYCAAVSYPAVYGFDYWGPGTQVTVSS
a: high polyreactivity

q: Report polyreactivity (PSR sort gate), nothing else, for this sequence: QVQLVESGGGLVQAGGSLRLSCAASGLTFWKNVMGWYRQAPGKERELVAAISWSGDSTYYADSVKGRFTISRDNAKNTVYLQMNSLKPEDTAVYYCAARYVSRYWAGRYPTRQRDSWGQGTQVTVSS
a: high polyreactivity

q: Report polyreactivity (PSR sort gate), nothing else, for this sequence: QVQLVESGGGLVQAGGSLRLSSAASGITFYWYAMGWYRQAPGKERELVAASTRSVGSTYYADSVNGRFTISRDNAKNTVYLQMNSLKPEDTAVYYCAADFYYYGFDYWGQGTQVTVSS
a: low polyreactivity

q: Report polyreactivity (PSR sort gate), nothing else, for this sequence: QVQLVESGGGLVQAGGSLRLSCAASGRTFKYNAMGWYRQAPGKEREFVAAISSRGGSTYYADSVKGRFTISRDNAKNTVYLQMNSLKPEDTAVYYCNKLYGTRWSGLADDYWGQGTQVTVSS
a: high polyreactivity

q: Report polyreactivity (PSR sort gate), nothing else, for this sequence: QVQLVESGGGLVQAGGSLRLSCAASGRTFGYYAMGWYRQAPGKERELVAAINSRGGSTYYADSVKGRFTISRDNAKNTVYLQMNSLKPEDTAVYYCAVVRWRHYIFATYDYWGQGTQVTVSS
a: high polyreactivity

* * *

- TEST_DESCRIPTION: yeast display, Sf9 membrane polyspecificity reagent, FACS + sequencing; frameworks hold sequencing errors
OBSERVED_PROPERTY: polyreactivity (PSR sort gate)

QVQLVESGGGLVQAGGSLRLSCAASGRIISSYAMGWYRQAPGKERELVAAITSSGGSTYYADSVKGRFTISRDNAKNTVYLQMNSLKPEDTAVYYCAARVFARYYTAYGVETRREEDYWGQGTQVTVSS : low polyreactivity
QVQLVESGGGLLQAGGSLRLICAASGFIFVTYAMGLYRQEPGKERELVAAITNSGGTTYYADSVKGRFTISRDNAKNTVYLQMNSLKPEDTAGYYCNKPYGAETAHREFDYWGQGTQVTVSS : low polyreactivity
QVQLVESGGGLVQAGGSLRLSCASSGSNFGYNAMGWYRQAPGKERELVAAILSSDSRTHYADSVKGRFTISRDNAKNTVYFQRNSLKPEDTAVYYCAAVKRRPGHYLYDYWGQGTQVSVSS : low polyreactivity

* * *

- TEST_DESCRIPTION: yeast display, Sf9 membrane polyspecificity reagent, FACS + sequencing; frameworks hold sequencing errors
OBSERVED_PROPERTY: polyreactivity (PSR sort gate)

Guide cases for polyreactivity (PSR sort gate), answers given:
QVQLVESGGGLVQAVGSLRLSCAASGRIFRHNAMGWYRQAPGKEWELVAAISGGGTTYYADSVKGRFTISRDNAKNTVYLQMNSLKPEDTAVYYCAARRRGSVGVGYAYAYYYWGQGTQVTVSS : high polyreactivity
QVQLVESGGGLVQAGGSLRLSCAASGFTFVTNAMGWYRQAPGKERELVAAISSSGARTYYADSVKGRFTISRDNAKNTVYLQMNSLKPEDTAVYYCAVYYYDFTSTEYGYWGQGTQVTVSS : high polyreactivity
QVQLVESGGGLVPAGGSLRLSCAASGRTFRYYGMGWYRQAPGTERELLAAISWRGGSTNYADSVKGRFTISRDNAKNTVYLQMNSLKREDTAVYYCAVGTVYLTYRGYEYWGQGTQVTVSS : high polyreactivity
QDQLVESGGGLVQARGPLRLSCSASGFNFSNYAMGWYRHAPGKERELVAAISFTGSNTYYADSVKGRFTISRDNAKNTVYLQMNSLKPEDTAVYYWNDPLVWGVYAAQNWDEGYWGQGTQVTVSS : low polyreactivity
QVQLVESGGGLVQAGGSLRLSCAASGGTFGTNTMGWYRPAHGKERELVAAISKRGGRTYYADSVKGRFTISRDNAKITVYLQMNSLKPEDTAVYYCAADTGGNPKYDYWGQGTQVTVSS : high polyreactivity

q: Report polyreactivity (PSR sort gate), nothing else, for this sequence: QVQLEESGGGLVQAGGSLRLSCAASGRIFYHYAMGWYRTAPGKERELVAAITSSGAGTYYADSVKGRFTISRDNAKNTVYLQMNSLKPEDTAVYYCAADASRRYRYWYDYWGQGTQVTVSS
a: high polyreactivity

q: Report polyreactivity (PSR sort gate), nothing else, for this sequence: QVQLVESGGGLVQAGGSLRLSCAATGRPSTSMLWDGIDRRLGKKGSSLTYYADSVKGRFTISRDNAKNTVYLQMNCLKPEDTAVYYCNKRRRWDNYGYRYGYWGQGTQVTVSS
a: low polyreactivity

q: Report polyreactivity (PSR sort gate), nothing else, for this sequence: QVQLVESGVGLVQAVGSLRLSCAASGSTFPWYAMGWYRQAPGKERSLVAGSSEGGGSTYYADSVKGRFTISRDNAKNTVYLQMNRLKPEDTAVYYCAADQVGAVYWVGEYGYWGQGTQVTVAS
a: low polyreactivity

q: Report polyreactivity (PSR sort gate), nothing else, for this sequence: QVQLVESGGGLVQAGGSLRLSCAASGRIFGGYAMGWYRQAPGKERELVAVITDGGSTNYADSVKGRFTISRDNAKNTVYLQMNSLKPEDTAVYYCAADSDGDEPPYDYWGQGTQVTVSS
a: low polyreactivity
